Answer each item with its documented FACS Cell Binding (Fold Above Background).
# tested_system: T1, monkey (macaca fascicularis) PRLR on HEK293 cells (macaca fascicularis, UniProt A0A2K5WXK1 25-619)
# T1 construct: also called mfPRLR; HEK293/mfPRLR
# T1 sequence: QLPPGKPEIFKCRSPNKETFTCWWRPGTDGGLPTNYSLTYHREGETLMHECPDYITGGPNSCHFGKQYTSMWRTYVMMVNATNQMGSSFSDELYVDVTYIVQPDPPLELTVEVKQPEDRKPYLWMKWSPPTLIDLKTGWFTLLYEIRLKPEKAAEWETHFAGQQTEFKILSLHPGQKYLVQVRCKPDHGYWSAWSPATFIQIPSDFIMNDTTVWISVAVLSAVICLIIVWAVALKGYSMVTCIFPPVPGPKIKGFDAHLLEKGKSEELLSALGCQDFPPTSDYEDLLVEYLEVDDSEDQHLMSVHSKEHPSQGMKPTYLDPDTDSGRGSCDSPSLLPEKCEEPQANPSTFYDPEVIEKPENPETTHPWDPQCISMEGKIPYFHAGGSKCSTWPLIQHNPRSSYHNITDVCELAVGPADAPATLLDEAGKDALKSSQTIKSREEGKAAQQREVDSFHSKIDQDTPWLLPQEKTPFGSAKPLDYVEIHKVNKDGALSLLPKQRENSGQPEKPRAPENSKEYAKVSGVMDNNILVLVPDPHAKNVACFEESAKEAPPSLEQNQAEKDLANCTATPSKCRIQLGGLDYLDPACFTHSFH
# method: FACS, HEK293/mfPRLR cells; further: test concentration or dose not given here
Give bare numbers, in fold above background.

Hey, quick one: what's FACS Cell Binding (Fold Above Background) for each of these?
1. H1H6774P (antibody, human IgG1, V domains shown, human IgG1 Fc (H1H)) VH: EVQLVESGGGLAQPGGSLRLSCVASGFTFSTYWMSWVRQAPGKGLDWVGNIKQDGSEQNYVDSVRGRFTISRDNAKNSLFLQMNSLRAEDTGVYYCATLLTKGDYWGQGTLVTVSS VL: DIQMTQSPSSLSASVGDSVTITCRASQDISNYLDWFQQKPGKAPKSLIYAASILQGGVPSRFSGSGYGTDFTLTISSLQPEDFATYYCRQYKTYPFTFGPGTKVDIK
2. H1H6953N (antibody, human IgG1, V domains shown, also called H1M6953N) VH: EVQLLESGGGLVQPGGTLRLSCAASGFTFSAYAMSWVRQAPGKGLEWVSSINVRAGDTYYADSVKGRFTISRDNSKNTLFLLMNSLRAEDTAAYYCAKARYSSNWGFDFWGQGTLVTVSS VL: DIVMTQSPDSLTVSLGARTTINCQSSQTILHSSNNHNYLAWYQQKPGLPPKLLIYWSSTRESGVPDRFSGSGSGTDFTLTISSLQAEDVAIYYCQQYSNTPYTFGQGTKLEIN

stdout:
[29, 29]
